experimentNotes: Solid-state stress stability test (temperature 60 °C)
conditionLabel: Table 12 summary
Structures can show the parent of a compound that is named as a salt.
endpoint: Change in Quality (%) 60 °C (4 weeks) Degradant
Write the value in % as a bare number.

Q: For the compound Cc1nc2c(O[C@H]3CCOc4cc(F)cc(F)c43)cc(C(=O)N(C)C)cc2[nH]1 [Malate Salt] , what Change in Quality (%) 60 °C (4 weeks) Degradant is on record?
Ans: 1.316

Q: Another compound to check: Cc1nc2c(O[C@H]3CCOc4cc(F)cc(F)c43)cc(C(=O)N(C)C)cc2[nH]1 [Methanesulfonate Salt (Crystalline Form)]
Ans: 4.045

Q: Now consider Cc1nc2c(O[C@H]3CCOc4cc(F)cc(F)c43)cc(C(=O)N(C)C)cc2[nH]1 [Methanesulfonate Salt (Amorphous Form)] .
Ans: 8.961

Q: Input Cc1nc2c(O[C@H]3CCOc4cc(F)cc(F)c43)cc(C(=O)N(C)C)cc2[nH]1 [Pidolate Salt]
Ans: 0.087

Measured values drawn from patent EP4678639A1 for this set.
